assay: Microsomal stability, over the tested liver microsome species; format: in vitro ADME; conditions: human, mouse, rat, liver microsomes, pH 7.4
recorded.endpoint: half-life at 0.5 μM

Query COCOc1c(OC)cc(C(=O)c2csc(-c3ccccc3)n2)cc1OC [compound 15] yields half-life at 0.5 μM of < 10 min
